Test system: Proteus mirabilis
experiment: Growth inhibition against Beta lactamase producing bacteria, Proteus mirabilis (121K) was determined for the compound in the combination with Ampicillin
Type: functional
Provide the recorded MIC for the entries that follow.
Only the number, expressed in µg/mL, is required.

Query :: What value of MIC has been recorded for this entry: CC1(C)S[C@@H]2[C@H](NC(=O)C(N)c3ccccc3)C(=O)N2[C@H]1C(=O)O.COC(=O)c1cn(C[C@@]2(C)[C@H](C(=O)[O-])C3C(=O)CC3S2(=O)=O)nn1.[Na+] (some centres undefined)
Result :: 0.78

Query :: Now consider CC1(C)S[C@@H]2[C@H](NC(=O)C(N)c3ccccc3)C(=O)N2[C@H]1C(=O)O.COC(=O)c1cnnn1C[C@@]1(C)[C@H](C(=O)[O-])C2C(=O)CC2S1(=O)=O.[Na+] (some centres undefined) and answer again.
Result :: 0.78

Query :: Record: CC1(C)S[C@@H]2[C@H](NC(=O)C(N)c3ccccc3)C(=O)N2[C@H]1C(=O)O.C[C@]1(Cn2cc([Si](C)(C)C)nn2)[C@H](C(=O)[O-])C2C(=O)CC2S1(=O)=O.[Na+] (some centres undefined)
Result :: 25

Query :: Next compound up: `CC1(C)S[C@@H]2[C@H](NC(=O)[C@H](N)c3ccccc3)C(=O)N2[C@H]1C(=O)O.CC1(C)[C@H](C(=O)O)N2C(=O)C[C@H]2S1(=O)=O`
Result :: 6.25
